System: HCT/VM34
Test: In vitro cytotoxicity assay, HCT/VM34 teniposide-resistant human colon tumor
Type: cell-based
Settings: HCT/VM34, resistant to teniposide; two values per compound; four-fold serial dilution
Assay Readout: In vitro cytotoxicity IC50, HCT/VM34 (µg/mL)
Answers are plain numbers, in µg/mL.

>  <Molecule>
C[C@@H]1OC[C@H]2O[C@@H](O[C@@H]3c4cc5c(cc4[C@@H](C4=CC(=O)C(=O)C(NC(=O)NCCCl)=C4)[C@H]4C(=O)OC[C@@H]43)OCO5)[C@H](O)[C@@H](O)[C@@H]2O1 [Example 29]

>  <In vitro cytotoxicity IC50, HCT/VM34 [µg/mL]>
53

$$$$
>  <Molecule>
COc1cc([C@@H]2c3cc4c(cc3[C@@H](O[C@@H]3O[C@@H]5CO[C@@H](C)O[C@H]5[C@H](O)[C@H]3O)[C@H]3COC(=O)[C@H]23)OCO4)cc(N=Cc2cccc([N+](=O)[O-])c2)c1O [Example 22]

>  <In vitro cytotoxicity IC50, HCT/VM34 [µg/mL]>
16.2

$$$$
>  <Molecule>
COc1cc([C@@H]2c3cc4c(cc3[C@@H](O[C@@H]3O[C@@H]5CO[C@@H](C)O[C@H]5[C@H](O)[C@H]3O)[C@H]3COC(=O)[C@H]23)OCO4)cc([N+]#N)c1[O-] [Example 25]

>  <In vitro cytotoxicity IC50, HCT/VM34 [µg/mL]>
43

$$$$

// each listed molecule needs a value for In vitro cytotoxicity IC50, HCT/VM34
1. COc1cc([C@@H]2c3cc4c(cc3[C@@H](O[C@@H]3O[C@@H]5CO[C@@H](C)O[C@H]5[C@H](O)[C@H]3O)[C@H]3COC(=O)[C@H]23)OCO4)cc(N=Cc2ccncc2)c1O [Example 19]
2. COc1cc([C@@H]2c3cc4c(cc3[C@@H](O[C@@H]3O[C@@H]5CO[C@@H](C)O[C@H]5[C@H](O)[C@H]3O)[C@H]3COC(=O)[C@H]23)OCO4)cc(NCN2C(=O)CCC2=O)c1O [Example 13]

1: 19.3; 2: 3.9

====

System: HCT-116
Test: In vitro cytotoxicity assay, HCT-116 human colon tumor
Assay type: cell-based
Conditions: HCT-116 human colon; two values per compound; four-fold serial dilution
Please use satisfied for In vitro cytotoxicity IC50, HCT-116 under 50 µg/mL and not satisfied for everything else, ties included.

>  <Molecule>
COc1cc([C@@H]2c3cc4c(cc3[C@@H](O[C@@H]3O[C@@H]5CO[C@@H](C)O[C@H]5[C@H](O)[C@H]3O)[C@H]3COC(=O)[C@H]23)OCO4)cc(NC(=O)NCc2ccccc2)c1O [Example 11]

>  <Study Target>
HCT-116

>  <Label Value>
not satisfied

$$$$
>  <Molecule>
COc1cc([C@@H]2c3cc4c(cc3[C@@H](O[C@@H]3O[C@@H]5CO[C@@H](C)O[C@H]5[C@H](O)[C@H]3O)[C@H]3COC(=O)[C@H]23)OCO4)cc(NS(C)(=O)=O)c1O [Example 12]

>  <Study Target>
HCT-116

>  <Label Value>
not satisfied

$$$$
>  <Molecule>
C[C@@H]1OC[C@H]2O[C@@H](O[C@@H]3c4cc5c(cc4[C@@H](C4=CC(=O)C(=O)C(NC(=O)NCCCl)=C4)[C@H]4C(=O)OC[C@@H]43)OCO5)[C@H](O)[C@@H](O)[C@@H]2O1 [Example 29]

>  <Study Target>
HCT-116

>  <Label Value>
satisfied

$$$$
>  <Molecule>
COc1cc([C@@H]2c3cc4c(cc3[C@@H](O[C@@H]3O[C@@H]5CO[C@@H](C)O[C@H]5[C@H](O)[C@H]3O)[C@H]3COC(=O)[C@H]23)OCO4)cc([N+](=O)[O-])c1O [Example 24, 3'-Desmethoxy-3'-nitro etoposide]

>  <Study Target>
HCT-116

>  <Label Value>
not satisfied

$$$$
>  <Molecule>
COc1cc([C@@H]2c3cc4c(cc3[C@@H](O[C@@H]3O[C@@H]5CO[C@@H](C)O[C@H]5[C@H](O)[C@H]3O)[C@H]3COC(=O)[C@H]23)OCO4)cc(NC(=O)NCCCl)c1O [Example 10]

>  <Study Target>
HCT-116

>  <Label Value>
not satisfied

$$$$
>  <Molecule>
COc1cc([C@@H]2c3cc4c(cc3[C@@H](O[C@@H]3O[C@@H]5CO[C@@H](C)O[C@H]5[C@H](O)[C@H]3O)[C@H]3COC(=O)[C@H]23)OCO4)cc(NC(C)=O)c1O [Example 7, 3'-Acetylamino-3'-desmethoxy etoposide]

>  <Study Target>
HCT-116

>  <Label Value>
not satisfied

$$$$
>  <Molecule>
COc1cc([C@@H]2c3cc4c(cc3[C@@H](O[C@@H]3O[C@@H]5CO[C@@H](C)O[C@H]5[C@H](O)[C@H]3O)[C@H]3COC(=O)[C@H]23)OCO4)cc([N+]#N)c1[O-] [Example 25]

>  <Study Target>
HCT-116

>  <Label Value>
satisfied

$$$$
>  <Molecule>
CNc1cc([C@@H]2c3cc4c(cc3[C@@H](O[C@@H]3O[C@@H]5CO[C@@H](C)O[C@H]5[C@H](O)[C@H]3O)[C@H]3COC(=O)[C@H]23)OCO4)cc(OC)c1O [Example 4, 3'-Desmethoxy-3'-methylamine etoposide]

>  <Study Target>
HCT-116

>  <Label Value>
satisfied

$$$$

Check if In vitro cytotoxicity IC50, HCT-116 falls below 50 µg/mL for COc1cc([C@@H]2c3cc4c(cc3[C@@H](O[C@@H]3O[C@@H]5CO[C@@H](C)O[C@H]5[C@H](O)[C@H]3O)[C@H]3COC(=O)[C@H]23)OCO4)cc(N=Cc2ccncc2)c1O [Example 19] .
satisfied

Sourced from patent US4853467A
